The measured values listed here are drawn from patent US20260132132A1.

Measured IC50 on UniProt:P00748 follows.
readout.type: IC50

In [3]: df
Out[3]:
                                    compound  experimental_target  readout_type             result
 0  Cc1nc2c(C#N)nn(-c3cccc(Cl)c3)c2c(=O)n1-c1ccc2c(c1)CN(C)CC2 [Example 3002]       UniProt:P00748          IC50      100 to 300 nM
 1  Cc1cc(CNC(=O)c2nn(-c3cccc(Cl)c3)c3c2CCN(c2ccc4c(c2)CCN(C)C4=O)C3=O)nn1C [Example 1205]       UniProt:P00748          IC50  10000 to 40000 nM
 2  Cc1cc(CNC(=O)c2nn(-c3cccc(Cl)c3)c3c2CCN(c2ccc4c(c2)C(=O)N(CCO)[C@@H](C)CO4)C3=O)n[nH]1 [Example 1380]       UniProt:P00748          IC50     300 to 1000 nM
 3  CN1CCc2ccc(N3CCc4c(C(=O)N[C@H]5COC[C@@H]5O)nn(-c5cccc(Cl)c5)c4C3=O)cc2C1=O [Example 1415]       UniProt:P00748          IC50      100 to 300 nM
 4  CS(=O)(=O)CCN1CCc2ccc(N3CCc4c(C(=O)NCC5CC5)nn(-c5cccc(Cl)c5)c4C3=O)cc2C1 [Example 1176]       UniProt:P00748          IC50     300 to 1000 nM
 5  O=C(NCc1cccnc1)c1nn(-c2cccc(Cl)c2)c2c1CCN(c1cccc(CN3CCCCC3)c1)C2=O [Example 1003]       UniProt:P00748          IC50     300 to 1000 nM
 6  Cc1ccncc1CNC(=O)c1nn(-c2cccc(Cl)c2F)c2c1CCN(c1ccc3c(c1)CN(CCO)CC3)C2=O [Example 2002]       UniProt:P00748          IC50       10 to 100 nM
 7  O=C(NCc1ccccc1)c1nn(-c2cccc(Cl)c2)c2c1CCN(c1cccc(CN3CCCCC3)c1)C2=O [Example 1001]       UniProt:P00748          IC50      100 to 300 nM
 8  CN1CCc2ccc(N3CCc4c(C(=O)N[C@H]5CCOC5)nn(-c5cccc(Cl)c5)c4C3=O)cc2C1=O [Example 1336]       UniProt:P00748          IC50     300 to 1000 nM
 9  CCN1CCc2ccc(N3CCc4c(C(=O)NCc5cc(C)n[nH]5)nn(-c5cccc(Cl)c5)c4C3=O)cc2C1 [Example 1086]       UniProt:P00748          IC50      100 to 300 nM
10  Cc1cc(CNC(=O)c2nn(-c3cccc(Cl)c3)c3c2CCN(c2ccc4c(c2)N(C)C(=O)CCC4)C3=O)nn1C [Example 1241]       UniProt:P00748          IC50    1000 to 3000 nM
11  Cc1cn(C)nc1CNC(=O)c1nn(-c2cccc(Cl)c2)c2c1CCN(c1ccc3c(c1)C(=O)N(CCO)CC3)C2=O [Example 1217]       UniProt:P00748          IC50       10 to 100 nM
12  CCN1Cc2cc(N3CCc4c(C(=O)NCC5CC5)nn(-c5cccc(Cl)c5)c4C3=O)ccc2[C@@H](C)C1 [Example 1153]       UniProt:P00748          IC50     300 to 1000 nM
13  CC(=O)N(C)c1cccc(N2CCc3c(C(=O)NCC4CC4)nn(-c4cccc(Cl)c4)c3C2=O)c1 [Example 1269]       UniProt:P00748          IC50  10000 to 40000 nM

====

Target: Human Factor XIIa (hFXIIa) (Homo sapiens, UniProt P00748)
Construct: purchased Enzyme Research Laboratories
Assay: Determination of Human Factor XIIa (hFXIIa) inhibition, fluorogenic substrate IC50 assay
Type: biochemical
Conditions: fluorogenic substrate H-DPro-Phe-Arg-AFC at Km, 25° C., read-out: Human FXIIa IC50
pIC50: −log10 of the molar value.
Entries and their pIC50
readout.type: pIC50

>>> print(df.to_string())
                                    compound                       experimental_target  readout_type        result
 0  Cc1cc(CNC(=O)c2nn(-c3cccc(Cl)c3)c3c2CCN(c2ccc4c(c2)CN(CCO)CC4)C3=O)ccn1 [Example 1171]  Human Factor XIIa (hFXIIa) (Homo sapiens, UniProt P00748)         pIC50  7.00 to 8.00
 1  O=C(NCC1CC1)c1nn(-c2cccc(Cl)c2)c2c1CCN(c1cccc(CN3CCCC3)c1)C2=O [Example 1072]  Human Factor XIIa (hFXIIa) (Homo sapiens, UniProt P00748)         pIC50  5.52 to 6.00
 2  COC(=O)CN1CCc2ccc(N3CCc4c(C(=O)NCC5CC5)nn(-c5cccc(Cl)c5)c4C3=O)cc2C1 [Example 1094]  Human Factor XIIa (hFXIIa) (Homo sapiens, UniProt P00748)         pIC50  5.52 to 6.00
 3  Cc1cc(CNC(=O)c2nn(-c3cccc(Cl)c3)c3c(=O)n(-c4ccc5c(c4)C(=O)N(CCO)CC5)c(C)nc23)nn1C [Example 3015]  Human Factor XIIa (hFXIIa) (Homo sapiens, UniProt P00748)         pIC50  7.00 to 8.00
 4  Cc1cc(CNC(=O)c2nn(-c3cccc(C#N)c3)c3c2CCN(c2ccc4c(c2)C(=O)N(C)CC4)C3=O)nn1C [Example 2012]  Human Factor XIIa (hFXIIa) (Homo sapiens, UniProt P00748)         pIC50  6.00 to 6.52
 5  Cc1ccncc1CNC(=O)c1nn(-c2cccc(Cl)c2)c2c(=O)n(-c3ccc4c(c3)CN(CCO)CC4)c(C)nc12 [Example 3011]  Human Factor XIIa (hFXIIa) (Homo sapiens, UniProt P00748)         pIC50  7.00 to 8.00
 6  CN1CCc2ccc(N3CCc4c(C(=O)NCc5cccnn5)nn(-c5cccc(Cl)c5)c4C3=O)cc2C1=O [Example 1202]  Human Factor XIIa (hFXIIa) (Homo sapiens, UniProt P00748)         pIC50  6.00 to 6.52
 7  CCNC(=O)c1nn(-c2cccc(Cl)c2)c2c(=O)n(-c3ccc4c(c3)C(=O)N(C)CC4)c(C)nc12 [Example 3022]  Human Factor XIIa (hFXIIa) (Homo sapiens, UniProt P00748)         pIC50  6.00 to 6.52
 8  Cc1ccncc1C(=O)NCc1nn(-c2cccc(Cl)c2)c2c(=O)n(-c3ccc4c(c3)CN(CCO)CC4)c(C)nc12 [Example 3010]  Human Factor XIIa (hFXIIa) (Homo sapiens, UniProt P00748)         pIC50  6.00 to 6.52
 9  Cc1cc(CNC(=O)c2nn(-c3cccc(Cl)c3)c3c2CCN(c2ccc4c(c2)C(=O)N(C)CC4)C3=O)n(C)n1 [Example 1264]  Human Factor XIIa (hFXIIa) (Homo sapiens, UniProt P00748)         pIC50  6.00 to 6.52
10  CN1C(=O)CCCc2ccc(N3CCc4c(C(=O)NCC5CC5)nn(-c5cccc(Cl)c5)c4C3=O)cc21 [Example 1242]  Human Factor XIIa (hFXIIa) (Homo sapiens, UniProt P00748)         pIC50  5.00 to 5.52
11  Cc1cc(CNC(=O)c2nn(-c3cccc(Cl)c3)c3c2CCN(c2ccc4c(c2)C(=O)N(C)[C@@H](CO)CO4)C3=O)nn1C [Example 1395]  Human Factor XIIa (hFXIIa) (Homo sapiens, UniProt P00748)         pIC50  5.52 to 6.00
12  O=C(NCc1ccn(C2CC2)n1)c1nn(-c2cccc(Cl)c2)c2c1CCN(c1ccc3c(c1)CN(CCO)CC3)C2=O [Example 1146]  Human Factor XIIa (hFXIIa) (Homo sapiens, UniProt P00748)         pIC50  7.00 to 8.00
13  Cc1ccncc1CNC(=O)c1nn(-c2cccc(Cl)c2)c2c1CCN(c1cccc(N3CCCCC3=O)c1)C2=O [Example 1287]  Human Factor XIIa (hFXIIa) (Homo sapiens, UniProt P00748)         pIC50  6.00 to 6.52

====

Target: UniProt P00748
Sequence (P00748 373-615 limits assumed): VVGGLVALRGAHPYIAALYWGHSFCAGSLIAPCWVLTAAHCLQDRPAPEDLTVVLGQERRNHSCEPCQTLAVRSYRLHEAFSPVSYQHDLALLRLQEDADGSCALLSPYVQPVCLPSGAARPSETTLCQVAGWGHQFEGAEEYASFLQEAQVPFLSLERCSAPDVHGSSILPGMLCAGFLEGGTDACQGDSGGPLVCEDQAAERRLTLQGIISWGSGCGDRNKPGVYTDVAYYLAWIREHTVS
Sequence (P00748 20-372 partner limits assumed): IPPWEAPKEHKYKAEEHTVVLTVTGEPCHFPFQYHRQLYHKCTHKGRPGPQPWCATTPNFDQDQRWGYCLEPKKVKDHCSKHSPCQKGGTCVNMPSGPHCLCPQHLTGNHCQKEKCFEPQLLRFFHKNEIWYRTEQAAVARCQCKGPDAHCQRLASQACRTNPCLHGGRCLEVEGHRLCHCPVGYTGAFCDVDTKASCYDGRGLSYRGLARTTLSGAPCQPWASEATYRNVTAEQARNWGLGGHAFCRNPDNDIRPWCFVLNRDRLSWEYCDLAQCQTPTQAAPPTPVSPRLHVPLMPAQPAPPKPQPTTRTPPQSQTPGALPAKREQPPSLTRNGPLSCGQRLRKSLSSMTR
pIC50: −log10 of the molar value.
readout.type: pIC50

In [3]: df
Out[3]:
                                    molecule  readout_type        result
 0  CCN1CCc2ccc(N3CCc4c(C(=O)NCc5ccccc5)nn(-c5cccc(Cl)c5)c4C3=O)cc2C1         pIC50  7.00 to 8.00
 1  CCNC(=O)c1nn(-c2cccc(Cl)c2)c2c1CCN(c1ccc3c(c1)C(=O)N(C)C1CC3C1)C2=O         pIC50  5.52 to 6.00
 2  CN(C)C(=O)c1cnnc(N2CCc3c(C(=O)NCC4CC4)nn(-c4cccc(Cl)c4)c3C2=O)c1         pIC50  5.00 to 5.52
 3  CN1CCc2cc(N3CCc4c(C(=O)NCC5CC5)nn(-c5cccc(Cl)c5)c4C3=O)ccc2C1=O         pIC50  4.40 to 5.00
 4  CN1CCc2ccc(N3CCc4c(C(=O)NC[C@H]5COCCO5)nn(-c5cccc(Cl)c5)c4C3=O)cc2C1=O         pIC50  6.00 to 6.52
 5  Cc1cc(CNC(=O)c2nn(-c3cccc(Cl)c3)c3c2CCN(c2ccc4c(c2)C(=O)N(CC(N)=O)CCO4)C3=O)nn1C         pIC50  7.00 to 8.00
 6  Cc1nc2c(C(=O)NCC3CC3)nn(-c3cccc(Cl)c3)c2c(=O)n1-c1ccc2c(c1)C(=O)N(CCO)CC2         pIC50  6.52 to 7.00
 7  COCCCN1CCc2ccc(N3CCc4c(C(=O)NCC5CC5)nn(-c5cccc(Cl)c5)c4C3=O)cc2C1         pIC50  6.52 to 7.00
 8  CCN1CCOc2ccc(N3CCc4c(C(=O)NCc5cc(C)n(C)n5)nn(-c5cccc(Cl)c5)c4C3=O)cc2C1=O         pIC50  7.00 to 8.00
 9  Cc1ccc(CNC(=O)c2nn(-c3cccc(Cl)c3)c3c2CCN(c2ccc4c(c2)CN(CCO)CC4)C3=O)cn1         pIC50  7.00 to 8.00
10  Cc1ccncc1CNC(=O)c1nn(-c2cccc(Cl)c2)c2c1CCN(c1cnc3c(c1)C(=O)N(C)CC3)C2=O         pIC50  6.00 to 6.52
11  O=C(NCC1CC1)c1nn(-c2cccc(Cl)c2)c2c1CCN(c1ccc3c(c1)C(=O)N(CC1CCOC1)CC3)C2=O (centres unmarked)         pIC50  6.00 to 6.52
12  CCNC(=O)c1nn(-c2cccc(Cl)c2)c2c1CCN(c1cccc(N3CCC4(CC4)C3)c1)C2=O         pIC50  5.00 to 5.52
13  Cc1ccncc1CNC(=O)c1nn(-c2cccc(Cl)c2)c2c1CCN(c1ccc3c(c1)CN(CCO)CC31CC1)C2=O         pIC50  7.00 to 8.00
